This collection of values is drawn from the array DNA melting data of Ke et al. (doi:10.1101/2024.01.08.574731).

In this section we review reported folding enthalpy values for a set of sequences.
- assayExplanation: folding enthalpy; higher = less favourable; fluorescence melt of hairpins on a sequencing array, two-state fit
- studyConditions: sodium 0.088 M
Entry rule: numbers only, all in kcal/mol.

GATCGATTATCGATC ((((((...)))))) = -38.5
GCTAACGAAAGTTATAGC ((((((....)))..))) = -24.2
GTAACTGGAAACAGTCAC ((.((((....)))).)) = -17
GCAGCCTCGAAAGAGTGC (((..(((....)))))) = -15.5

Kindly indicate its recorded folding enthalpy. Item: GATGATGGAAACGTCATC (((((.(....).))))) -29.8

Kindly indicate its recorded folding enthalpy. Item: GTTCACCGAAAGGTTAAC (((.(((....))).))) -26.4

Kindly indicate its recorded folding enthalpy. Item: GGAGAAGAAATTCTCC ((((((....)))))) -27.7

Kindly indicate its recorded folding enthalpy. Item: GATCCCATGAGGGATC ((((((....)))))) -30.3

Kindly indicate its recorded folding enthalpy. Item: GCCGTGCGAAAGCCTGGC (((..((....))..))) -20.4

----------
- assayExplanation: folding enthalpy; higher = less favourable; fluorescence melt of hairpins on a sequencing array, two-state fit
- studyConditions: sodium 0.088 M
In this section we review reported folding enthalpy values for a set of sequences.

GCCCATGCGAAAGCAGGC (((..(((....)))))) = -13.8 kcal/mol
GTAGACGAAAGTCCTTAC ((((((....)))..))) = -12.1 kcal/mol
GGCGTAGGAAACTACGTC (.(((((....))))).) = -34.7 kcal/mol

Kindly indicate its recorded folding enthalpy. Item: GGAAGCGCGAAAGCGTCC (((..(((....)))))) -9.67 kcal/mol

----------
- assayExplanation: folding enthalpy; higher = less favourable; fluorescence melt of hairpins on a sequencing array, two-state fit
- studyConditions: sodium 0.088 M
In this section we review reported folding enthalpy values for a set of sequences.
Entry rule: numbers only, all in kcal/mol.

Kindly indicate its recorded folding enthalpy. Item: GTCAAGGAAACTTGAC ((((((....)))))) -29.6

Kindly indicate its recorded folding enthalpy. Item: GCGTGTCGACGC ((((....)))) -24.6

Kindly indicate its recorded folding enthalpy. Item: GATCTCGGAGAGATC ((((((...)))))) -33.3

----------
In this section we review reported Tm values for a set of sequences.
- assayExplanation: melting temperature; fluorescence melt of hairpins on a sequencing array, two-state fit, raised by 9.35 °C to match UV melts
- studyConditions: sodium 0.088 M
Entry rule: numbers only, all in °C.

GTCAGAGGAAACTCTGGC (.(((((....))))).) = 50.3
GCGGTGCGAAAGCTACGC (((..((....))..))) = 63.9

Kindly indicate its recorded Tm. Item: GCTCGGCGAAAGCGAAGC (((..((....))..))) 47.2

Kindly indicate its recorded Tm. Item: GCTTGTGGAAACACAGGC ((.((((....)))).)) 52

Kindly indicate its recorded Tm. Item: GCATTTACGAAAGTATGC (((..(((....)))))) 38

Kindly indicate its recorded Tm. Item: GCAAAGCGAAAGCTCGGC ((..(((....)))..)) 36.5

Kindly indicate its recorded Tm. Item: GTTTTCTCGAAAGAGAAC (((..(((....)))))) 34.7

Kindly indicate its recorded Tm. Item: GGACAGGGAAACCTGCCC ((.((((....)))).)) 48.2

Kindly indicate its recorded Tm. Item: GGTGTACGAAAGTAGACC (((.(((....))).))) 52.2

Kindly indicate its recorded Tm. Item: GACTTGCGAAAGCACGTC (((.(((....))).))) 52.4

Kindly indicate its recorded Tm. Item: GCGGCCGGAAACGGCCAC (.(((((....))))).) 53

Kindly indicate its recorded Tm. Item: GGTCCGCCGAAAGGCACC (((..(((....)))))) 28.3

Kindly indicate its recorded Tm. Item: GGTCCACGAAAGTGCACC (((.(((....))).))) 44.5

Kindly indicate its recorded Tm. Item: CATCTGAAAAGATG (((((....))))) 44.5

Kindly indicate its recorded Tm. Item: GAATGCGAAAGCAATTTC ((((((....)))..))) 30.6
